- Condition Context: PAMPA
Where a SMILES comes first, the peptide text is derived from it. [ ]: non-standard residue; d: D form. NMeF = CN[C@@H](Cc1ccccc1)C(=O)O; dNMeF = CN[C@H](Cc1ccccc1)C(=O)O; NMeL = CN[C@@H](CC(C)C)C(=O)O; dNMeL = CN[C@H](CC(C)C)C(=O)O; dNMeA = CN[C@H](C)C(=O)O
Quantity Measured: PAMPA_R1

CC[C@H](C)[C@@H]1NC(=O)[C@H](Cc2ccccc2)N(C)C(=O)[C@H]2CCCN2C(=O)[C@H]([C@@H](C)CC)NC(=O)[C@H](C(C)C)NC(=O)[C@@H](C)NC(=O)[C@H]2CCCN2C1=O [Design D7.9, VAL ILE DPRO *PHE ILE DPRO DALA] (cyclo(I[dP][NMeF]I[dP][dA]V)) ... 6.71 ×10⁻⁶ cm/s
CC(C)C[C@@H]1NC(=O)[C@@H]2CCCN2C(=O)[C@@H](Cc2ccccc2)N(C)C(=O)[C@H](CC(C)C)N(C)C(=O)[C@H](CC(C)C)N(C)C(=O)[C@@H](CC(C)C)N(C)C(=O)[C@H](C)NC(=O)[C@H](C(C)C)NC(=O)CNC(=O)[C@H](Cc2ccccc2)NC1=O [Design D10.24] (cyclo(A[dNMeL][NMeL][NMeL][dNMeF]PLFGV)) ... BQL
CC[C@@H](C)[C@H]1NC(=O)[C@@H](C)NC(=O)[C@@H](CC(C)C)NC(=O)[C@@H](Cc2ccccc2)NC(=O)[C@@H]2CCCN2C(=O)[C@@H]2CCCN2C(=O)[C@@H](CC(C)C)N(C)C(=O)[C@@H](C)N(C)C(=O)[C@@H](CC(C)C)NC(=O)[C@H](CC(C)C)NC(=O)[C@@H](Cc2ccccc2)NC1=O [Design D11.18] (cyclo(L[dL][dNMeA][dNMeL]PP[dF][dL][dA][dI][dF])) ... BQL

====

- Condition Context: PAMPA
Where a SMILES comes first, the peptide text is derived from it. [ ]: non-standard residue; d: D form. NMeL = CN[C@@H](CC(C)C)C(=O)O; dNMeL = CN[C@H](CC(C)C)C(=O)O; dNMeV = CN[C@@H](C(=O)O)C(C)C
Quantity Measured: PAMPA_R1 (nm/s)
Answers are plain numbers, in nm/s.

CC(C)C[C@H]1C(=O)N2CCC[C@@H]2C(=O)N[C@@H](Cc2ccccc2)C(=O)N2CCC[C@H]2C(=O)N(C)[C@H](C(C)C)C(=O)N[C@H](Cc2ccccc2)C(=O)N1C [Design D6.10, *DVAL DPHE *LEU DPRO PHE PRO] (cyclo(FP[dNMeV][dF][NMeL][dP])) ... 123

Moving on to the next molecule.
Input line: Look at this molecule and give its reported PAMPA_R1. CC[C@H](C)[C@@H]1NC(=O)[C@H](CC(C)C)N(C)C(=O)[C@H]2CCCN2C(=O)[C@@H](CC(C)C)NC(=O)[C@H](CC(C)C)NC(=O)[C@@H](CC(C)C)N(C)C(=O)[C@@H]2CCCN2C1=O [Design D7.2, DLEU DPRO *LEU ILE PRO *DLEU LEU] (cyclo(IP[dNMeL]L[dL][dP][NMeL]))
Output line: 148

====

- Tested on: Caco-2 cells
- Test Details: Caco-2 permeability assay (apical to basolateral)
- Format: in vitro ADME, human
- Condition Context: Caco-2
Where a SMILES comes first, the peptide text is derived from it. [ ]: non-standard residue; d: D form. ξ: configuration not given here. dNMeI = CC[C@@H](C)[C@@H](NC)C(=O)O; NMeI = CC[C@H](C)[C@H](NC)C(=O)O; dIle(3ξ) = CCC(C)[C@@H](N)C(=O)O; dNMeF = CN[C@H](Cc1ccccc1)C(=O)O; NMeL = CN[C@@H](CC(C)C)C(=O)O; dNMeL = CN[C@H](CC(C)C)C(=O)O; dNMeA = CN[C@H](C)C(=O)O; Aib = CC(C)(N)C(=O)O; Sar = CNCC(=O)O
For each entry below, report its Caco_R3 value.
Give bare numbers.

The following compounds have reported results that may help.
CC[C@H](C)[C@H]1C(=O)N[C@H](C)C(=O)N[C@@H](CC(C)C)C(=O)N[C@@H](C(C)C)C(=O)N2CCC[C@@H]2C(=O)N(C)[C@@H](CC(C)C)C(=O)N[C@@H](C(C)C)C(=O)N2CCC[C@H]2C(=O)N(C)[C@H](CC(C)C)C(=O)N[C@@H](C(C)C)C(=O)N1C [Design D10.19] (cyclo(LV[dP][NMeL]VP[dNMeL]V[NMeI][dA])) ... 17.24
CC[C@@H](C)[C@H]1NC(=O)[C@H](CC(C)C)NC(=O)[C@@H](CC(C)C)NC(=O)[C@H](C(C)C)NC(=O)[C@@H](Cc2ccccc2)N(C)C(=O)[C@@H]2CCCN2C(=O)[C@@H](CC(C)C)NC(=O)[C@H](CC(C)C)N(C)C(=O)[C@H]2CCCN2C1=O [Design D9.3] (cyclo(L[dI][dP][NMeL][dL]P[dNMeF]V[dL])) ... 3.81
CC[C@@H](C)[C@H]1NC(=O)[C@H]([C@@H](C)CC)NC(=O)[C@H](CC(C)C)N(C)C(=O)[C@H]2CCCN2C(=O)[C@@H]([C@H](C)CC)NC(=O)[C@@H]([C@H](C)CC)N(C)C(=O)[C@H](CC(C)C)NC(=O)[C@H]2CCCN2C(=O)[C@@H]2CCCN2C(=O)[C@H](C(C)C)NC(=O)[C@H]2CCCN2C1=O [Design D11.3] (cyclo(I[dI][dP]VP[dP]L[dNMeI][dI][dP][NMeL])) ... 11.26
CCC(C)[C@H]1NC(=O)[C@H](CC(C)C)NC(=O)[C@@H](C)N(C)C(=O)[C@@H]2CCCN2C(=O)[C@H](C)NC(=O)[C@@H](CC(C)C)NC(=O)[C@H]2CCCN2C(=O)[C@H](C(C)C)NC(=O)[C@@H](CC(C)C)N(C)C1=O (stereo partly drawn) [Design D9.30] (cyclo(AP[dNMeA]L[dIle(3ξ)][dNMeL]V[dP][dL])) ... 2.72
CC[C@@H](C)[C@H]1NC(=O)[C@@H](CC(C)C)NC(=O)C(C)(C)NC(=O)[C@@H]2CCCN2C(=O)[C@@H]([C@H](C)CC)NC(=O)[C@@H](CC(C)C)NC(=O)C(C)(C)NC(=O)[C@@H]2CCCN2C1=O [Design D8.2, PRO AIB DLEU DILE PRO AIB DLEU DILE] (cyclo([Aib][dL][dI]P[Aib][dL][dI]P)) ... 13.19

I have 2 compounds here; please give me Caco_R3 for each one.
1. CC(C)C[C@@H]1NC(=O)[C@@H]2CCCN2C(=O)[C@@H](Cc2ccccc2)NC(=O)[C@H](C)N(C)C(=O)[C@H](CC(C)C)NC(=O)[C@H](CC(C)C)N(C)C(=O)[C@@H](C)NC(=O)[C@@H](CC(C)C)NC(=O)[C@@H]2CCCN2C(=O)[C@@H](Cc2ccccc2)NC1=O (single isomer, unassigned) [Design D10.2.p2]
2. CC[C@@H](C)[C@H]1NC(=O)[C@@H]2CCCN2C(=O)[C@@H]([C@H](C)CC)NC(=O)CN(C)C(=O)[C@H](CC(C)C)NC(=O)[C@@H](Cc2ccccc2)NC(=O)[C@H](CC(C)C)N(C)C(=O)[C@H]2CCCN2C(=O)[C@@H](CC(C)C)NC(=O)[C@H](CC(C)C)NC(=O)[C@H]2CCCN2C1=O [Design D11.2] (cyclo(L[Sar][dI]P[dI][dP]L[dL][dP][NMeL][dF]))

Output line:
[0, 2.65]

====

- Condition Context: PAMPA
Where a SMILES comes first, the peptide text is derived from it. [ ]: non-standard residue; d: D form.
Quantity Measured: PAMPA_R1 (×10⁻⁶ cm/s)
Give bare numbers, in ×10⁻⁶ cm/s.

CC(C)[C@@H]1C(=O)N[C@@H](Cc2ccccc2)C(=O)N2CCC[C@H]2C(=O)N(C)[C@H](Cc2ccccc2)C(=O)N[C@H](C)C(=O)N2CCC[C@H]2C(=O)N1C (single isomer, unassigned) [Design D6.8.p1, *DPHE DALA PRO *DVAL PHE PRO] ... 4.07

Moving on to the next compound.
Input line: Request the reported PAMPA_R1 associated with CC(C)C[C@H]1NC(=O)[C@@H]2CCCN2C(=O)[C@@H]2CCCN2C(=O)[C@@H](C)NC(=O)[C@@H](Cc2ccccc2)NC(=O)[C@H]2CCCN2C1=O [Design D6.3, DPRO DPHE DALA PRO PRO DLEU] (cyclo(PP[dL][dP][dF][dA]))
Output line: 5.23

====

- Condition Context: PAMPA
Where a SMILES comes first, the peptide text is derived from it. [ ]: non-standard residue; d: D form. NMeF = CN[C@@H](Cc1ccccc1)C(=O)O; dNMeF = CN[C@H](Cc1ccccc1)C(=O)O; NMeL = CN[C@@H](CC(C)C)C(=O)O; dNMeL = CN[C@H](CC(C)C)C(=O)O
Quantity Measured: PAMPA_R1

CC[C@@H](C)[C@H]1NC(=O)[C@@H](Cc2ccccc2)NC(=O)[C@@H]2CCCN2C(=O)[C@@H]([C@H](C)CC)NC(=O)[C@@H](Cc2ccccc2)NC(=O)[C@@H]2CCCN2C1=O [Design D6.1, DILE PRO DPHE DILE PRO DPHE] (cyclo(P[dF][dI]P[dF][dI])) ... 3.78 ×10⁻⁶ cm/s
CC[C@H](C)[C@@H]1NC(=O)[C@@H](CC(C)C)NC(=O)[C@H](CC(C)C)NC(=O)[C@H]2CCCN2C(=O)[C@@H]2CCCN2C(=O)[C@H]([C@@H](C)CC)NC(=O)[C@@H](CC(C)C)N(C)C(=O)[C@@H](CC(C)C)N(C)C1=O [Design D8.9, ILE *DLEU *DLEU ILE PRO DPRO LEU DLEU] (cyclo(IP[dP]L[dL]I[dNMeL][dNMeL])) ... BQL
CC[C@H](C)[C@@H]1NC(=O)[C@H](C)NC(=O)[C@@H](CC(C)C)NC(=O)[C@H](CC(C)C)N(C)C(=O)[C@H](CC(C)C)NC(=O)[C@@H](Cc2ccccc2)N(C)C(=O)[C@@H]2CCCN2C(=O)[C@H]([C@@H](C)CC)NC(=O)[C@H](Cc2ccccc2)N(C)C(=O)[C@@H](CC(C)C)NC1=O [Design D10.55] (cyclo(AI[dL][NMeF]IP[dNMeF]L[NMeL][dL])) ... BQL
